# Tested system: T1, Recombinant human PSGL-1(ECD)-hFc1 (R&D Systems, Cat. 3345-PS) (human, UniProt Q14242 42-305)
# T1 construct: Bought; Gln42-Val295 counted on AAC50061; also called PSGL-1-Fc; PSGL-1-hFc1 chimera; not shown: human IgG1 Fc, Pro100-Lys330
# T1 sequence: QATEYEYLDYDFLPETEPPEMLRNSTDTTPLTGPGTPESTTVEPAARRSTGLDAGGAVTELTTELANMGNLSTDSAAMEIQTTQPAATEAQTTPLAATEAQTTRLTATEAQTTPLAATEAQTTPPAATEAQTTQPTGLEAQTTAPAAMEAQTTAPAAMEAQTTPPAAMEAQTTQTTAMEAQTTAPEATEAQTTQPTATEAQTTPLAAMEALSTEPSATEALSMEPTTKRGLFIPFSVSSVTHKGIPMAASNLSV
# Assay notes: blocking ELISA vs P-selectin-Fc
Quantity name: pIC50
pIC50 (log units): -log10 of the concentration in mol/L.

Problem: For 16L15 (antibody, V domains shown, From mouse immunisation; only variable domains given) VH: DVKLVESGGGLVKLGGSLKLSCAASGFTFSSYYMSWVRQTPEKRLEWVATISNGGGSTYYPDSVKDRFTISRDNAKNTLYLQMSSLNSEDTAVYYCAKPLYYSNPWFAYWGQGTLVTVSA VL: DVLLTQTPLSLPVSLGDQASISCRSSQSIVHSNGNTYLEWYLQKPGQSPKLLIYKVSNRFSGVPDRFSGSGSGTDFTLKISRVEAEDLGVYYCFQGSHVPRTFGGGTKLEIK , write its pIC50.
Result: 8.00

Problem: Consider the binder 20I15 (antibody, V domains shown, From mouse immunisation; only variable domains given; also called 20115) VH: EVKLVESGGGLVQPGGSLSLSCAASGFTFTDYYMSWVRQPPGKALEWLGFIRNKANGYTTEYSASVKGRFTISRDNSQSILYLQMNALRAEDSATYYCARTYLRRGYFDVWGTGTTVTVSS VL: DIVLTQSPASLAVSLGQRATISCRASKSVSTSGYSYMHWFQQKPGQPPKLLIYLASNLESGVPARFSGSGSGTDFTLNIHPVEEEDAATYYCQHSRELPLTFGAGTKLELK . State its measured pIC50.
Result: 7.00

Problem: Provide only the value of recorded pIC50 for 19I01 (antibody, V domains shown, From mouse immunisation; only variable domains given; also called 19101) VH: EVQLVESGGGLVKPGGSRKLSCAASGFTFSDYGMHWVRQAPEKGLEWVAYISSGSSTIYYADTVKGRFTISRDNAKNTLFLQMTSLRSEDTAMYYCARGVDGYWGQGTTLTVSS VL: DVVMTQTPLSLPVSLGDQASISCRSSQSLVHSNGNTYLHWYLQKPGQSPKFLIYKVSNRFSGVPDRFSGSGSGTDFTLKISRVEAEDLGVYFCSQTTHVPLTFGAGTKLELK
Result: 8.40

Problem: State its pIC50: 18F02 (antibody, V domains shown, From mouse immunisation; only variable domains given) VH: QVQLQQPGAELVKPGASVKLSCKASGYTFTSYWMHWVKQRPGQGLEWIGMIHPNSGRTNYNEKFKSKATLTVDKSSSTAYMQLSSLTSEDSAVYYCARSDYWGQGTTLTVSS VL: DIVMTQAAFSNPVTLGTSASISCRSSKSLLHSDGITYLYWFLQRPGQSPQLLIYRMSNLASGVPDRFSGSGSGTDFTLRISRVEAEDVGVYYCAQMLEFPRTFGGGTKLEIK
Result: 8.22

Problem: Specify measured pIC50 for 9F9 (antibody, V domains shown, Control anti-PSGL-1 mAb, recombinant; only variable domains given; also called 9F6) VH: EVQLVETGGGLVQPKGSLKLSCAASGFTFNTNAMNWVRQAPGKGLEWVARIRSKSNNYATYYADSVKDRFTISRDDTQSMIYLQMNNLKTEDTGMYYCVRGGSYWYFDVWGAGTTVTVSS VL: DVLMTQTPLSLPVSLGDQASISCRSSQSIVNSNGNTYLEWYLQKPGQSPKLLIYKVSNRFSGVPDRFSGSGSGTDFTLKISRVEAEDLGVYYCFQGSHVPWTFGGGTKLEIK .
Result: 8.00
